- Test system: Enterococcus faecalis
- procedureSummary: Antimicrobial activity against daptomycin-resistant Enterococcus faecalis ATCC 49452 incubated anaerobically at 37 degC for 48 hrs by agar dilution method
- Assay type: functional
- condition: ATCC 49452, 48 h
parameterMeasured: MIC

[[record]]
compound = "C[C@H]1NC(=O)C(CC(=O)O)NC(=O)[C@H](CCCN)NC(=O)CNC(=O)[C@@H](NC(=O)[C@H](CC(=O)O)NC(=O)[C@H](CC(N)=O)NC(=O)[C@H](Cc2c[nH]c3ccccc23)NC(=O)CCCCC2CCCCC2)[C@@H](C)OC(=O)[C@H](CC(=O)c2ccccc2N)NC(=O)[C@H]([C@@H](C)CC(=O)O)NC(=O)[C@@H](CO)NC(=O)CNC(=O)[C@H](CC(=O)O)NC1=O (single isomer, unassigned)"
obsvalue = "> 32 µg/mL"

[[record]]
compound = "C[C@H]1NC(=O)[C@@H](CC(=O)O)NC(=O)[C@H](CCCN)NC(=O)CNC(=O)[C@@H](NC(=O)[C@H](CC(=O)O)NC(=O)[C@H](CC(N)=O)NC(=O)[C@H](Cc2c[nH]c3ccccc23)NC(=O)c2ccc(-c3ccc(Cl)cc3)cc2)[C@@H](C)OC(=O)[C@H](CC(=O)c2ccccc2N)NC(=O)[C@H]([C@@H](C)CC(=O)O)NC(=O)[C@@H](CO)NC(=O)CNC(=O)[C@H](CC(=O)O)NC1=O"
obsvalue = "> 32 µg/mL"

[[record]]
compound = "C[C@H]1NC(=O)C(CC(=O)O)NC(=O)[C@H](CCCN)NC(=O)CNC(=O)[C@@H](NC(=O)[C@H](CC(=O)O)NC(=O)[C@H](CC(N)=O)NC(=O)[C@H](Cc2c[nH]c3ccccc23)NC(=O)CCCCCCC2CCCCC2)[C@@H](C)OC(=O)[C@H](CC(=O)c2ccccc2N)NC(=O)[C@H]([C@@H](C)CC(=O)O)NC(=O)[C@@H](CO)NC(=O)CNC(=O)[C@H](CC(=O)O)NC1=O (single isomer, unassigned)"
obsvalue = "16 µg/mL"

[[record]]
compound = "C[C@H]1NC(=O)C(CC(=O)O)NC(=O)[C@H](CCCN)NC(=O)CNC(=O)[C@@H](NC(=O)[C@H](CC(=O)O)NC(=O)[C@H](CC(N)=O)NC(=O)[C@H](Cc2c[nH]c3ccccc23)NC(=O)CCCCCCc2ccccc2)[C@@H](C)OC(=O)[C@H](CC(=O)c2ccccc2N)NC(=O)[C@H]([C@@H](C)CC(=O)O)NC(=O)[C@@H](CO)NC(=O)CNC(=O)[C@H](CC(=O)O)NC1=O (single isomer, unassigned)"
obsvalue = "> 32 µg/mL"

[[record]]
compound = "CCCCCCSc1ccc(-c2csc(C(=O)N[C@@H](Cc3c[nH]c4ccccc34)C(=O)N[C@@H](CC(N)=O)C(=O)N[C@@H](CC(=O)O)C(=O)N[C@@H]3C(=O)NCC(=O)N[C@@H](CCCN)C(=O)N[C@H](CC(=O)O)C(=O)N[C@H](C)C(=O)N[C@@H](CC(=O)O)C(=O)NCC(=O)N[C@H](CO)C(=O)N[C@@H]([C@@H](C)CC(=O)O)C(=O)N[C@@H](CC(=O)c4ccccc4N)C(=O)O[C@@H]3C)c2)cc1"
obsvalue = "> 32 µg/mL"

